B1: scFv; the commonest letter at each place (parent)
chain 1: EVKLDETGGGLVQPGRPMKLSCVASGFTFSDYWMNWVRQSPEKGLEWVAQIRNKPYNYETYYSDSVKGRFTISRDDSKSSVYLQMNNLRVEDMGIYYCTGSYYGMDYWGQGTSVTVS
chain 2: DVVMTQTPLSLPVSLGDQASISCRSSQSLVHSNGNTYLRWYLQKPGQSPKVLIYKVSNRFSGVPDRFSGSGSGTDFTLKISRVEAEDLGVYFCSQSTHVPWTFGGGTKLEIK

- Variants of: B1
- methodNotes: yeast surface expression (ratio to wild type); higher = more expressed
- particulars: format: scFv 4-4-20, heavy + light
Please note: YES applies when yeast surface expression is 0.9 or greater, and NO applies otherwise.

- mutationAnnotation: "chain 1 F29V N35D"
  assignedCategory: "NO"
- mutationAnnotation: "chain 1 D31Y W36S"
  assignedCategory: "NO"
- mutationAnnotation: "chain 1 G100L Y102W"
  assignedCategory: "NO"
- mutationAnnotation: "chain 1 G109H"
  assignedCategory: "NO"
- mutationAnnotation: "chain 1 D31L Y32H N35V"
  assignedCategory: "NO"
- mutationAnnotation: "chain 1 F29Y Y32H"
  assignedCategory: "NO"
- mutationAnnotation: "chain 1 W36P V37Y"
  assignedCategory: "NO"
- mutationAnnotation: "chain 1 T28E M34R"
  assignedCategory: "NO"
- mutationAnnotation: "chain 1 S30E D31N"
  assignedCategory: "YES"
- mutationAnnotation: "chain 1 F29E"
  assignedCategory: "NO"
- mutationAnnotation: "chain 1 S30G W36S"
  assignedCategory: "NO"
- mutationAnnotation: "chain 1 T28I F29L"
  assignedCategory: "NO"
- mutationAnnotation: "chain 1 Y102N D106E"
  assignedCategory: "YES"
- mutationAnnotation: "chain 1 G104V G109W"
  assignedCategory: "YES"
- mutationAnnotation: "chain 1 M105P D106E"
  assignedCategory: "NO"
- mutationAnnotation: "chain 1 M105Y"
  assignedCategory: "NO"
- mutationAnnotation: "chain 1 D106T"
  assignedCategory: "YES"
- mutationAnnotation: "chain 1 F29T M34S"
  assignedCategory: "NO"
- mutationAnnotation: "chain 1 T28A Y32H"
  assignedCategory: "NO"
- mutationAnnotation: "chain 1 S101N G104N"
  assignedCategory: "NO"
- mutationAnnotation: "chain 1 S30G W33V"
  assignedCategory: "YES"
- mutationAnnotation: "chain 1 Y102S M105N"
  assignedCategory: "YES"
- mutationAnnotation: "chain 1 M34G W36A"
  assignedCategory: "YES"
- mutationAnnotation: "chain 1 Y103N G104F"
  assignedCategory: "NO"
- mutationAnnotation: "chain 1 D31H Y32F"
  assignedCategory: "NO"
- mutationAnnotation: "chain 1 G100R Y102I"
  assignedCategory: "NO"
- mutationAnnotation: "chain 1 W36G V37Q"
  assignedCategory: "YES"
- mutationAnnotation: "chain 1 M105P G109T"
  assignedCategory: "NO"
- mutationAnnotation: "chain 1 S101G Y103C"
  assignedCategory: "NO"
- mutationAnnotation: "chain 1 S101M"
  assignedCategory: "NO"
- mutationAnnotation: "chain 1 S101G D106A"
  assignedCategory: "NO"
- mutationAnnotation: "chain 1 Y102S Y103S"
  assignedCategory: "YES"
- mutationAnnotation: "chain 1 W108N G109N"
  assignedCategory: "NO"
- mutationAnnotation: "chain 1 N35K"
  assignedCategory: "NO"
- mutationAnnotation: "chain 1 Y102V"
  assignedCategory: "YES"
- mutationAnnotation: "chain 1 Y107N"
  assignedCategory: "NO"
- mutationAnnotation: "chain 1 F29K Y32N"
  assignedCategory: "NO"
- mutationAnnotation: "chain 1 G100S"
  assignedCategory: "YES"
- mutationAnnotation: "chain 1 G104Q G109Q"
  assignedCategory: "NO"
- mutationAnnotation: "chain 1 M34H"
  assignedCategory: "NO"
- mutationAnnotation: "chain 1 D106L"
  assignedCategory: "NO"
- mutationAnnotation: "chain 1 Y103V Y107V"
  assignedCategory: "NO"
